Tested on: NCI-H226 lung
Assay: NCI-60 one-dose screen, 48 h (100 = growth as untreated, 0 = no growth, -100 = all killed)
Settings: 10 µM unless noted
Method: Growth inhibition of the NCI-H226 human Non-Small Cell Lung tumor cell line is measured as a screen for anti-cancer activity. Cells are grown in 96 well plates and exposed to the test compound for 48 hours. Compounds are tested at a single concentration, which is 10^-5 M for most compounds. The reported endpoint is percent growth (GI% or GIPRCNT), where numbers from 0 - 100% represent growth inhibition, and numbers from -100% - 0 represent cell death. […]
The panel holds about 83,000 compounds, 20% with a hit somewhere; the sample as a whole holds those more often.
observable: growth (%)
Form entry: value (%) — number only.

Before answering, review these 4 worked examples.
>>> df
                               samplesmiles  assayedtarget  datavalue
0  COC(=O)c1c2c(c(C)[n+]([O-])c1C)C(=O)C(NCc1cccc(OC)c1)=CC2=O  NCI-H226 lung       83.2
1  CCCCNC(=O)CC1=C(C)/C(=C/c2[nH]c(-c3ccc[nH]3)cc2OC)N=C1C  NCI-H226 lung       36.7
2  O=C(Nc1ccc(OS(=O)(=O)c2ccc(F)cc2)cc1)C1CCCCCC1  NCI-H226 lung       94.3
3  c1ccc2cc(C[n+]3ccn(CCCCCCCCCCn4cc[n+](Cc5ccc6ccccc6c5)c4)c3)ccc2c1  NCI-H226 lung       39.5

Alright, here's another compound for you.
What value of growth has been reported for the following compound? "C=CC[Se]C(=O)Cc1c(C)n(C(=O)c2ccc(Cl)cc2)c2ccc(OC)cc12"
-20.5
